tested on: rodent lifetime carcinogenesis bioassay, tumor incidence TD50; test: carcinogenic potency in animals, long-term in vivo studies, CPDB compilation (AID 1745844); conditions: mouse; strain B6C3F1; males; in feed; site: liver; lesion: hepatocellular adenoma + hepatoblastoma + hepatocellular carcinoma; dosed 103 weeks; study length 105 weeks
Outcome Measure: TD50 (mg/kg/day)
Reply with just the number (in mg/kg/day).

Task: Item "Nc1cc(S(=O)(=O)[O-])cc2cc(S(=O)(=O)[O-])c(N=Nc3ccc(-c4ccc(N=Nc5c(S(=O)(=O)[O-])cc6cc(S(=O)(=O)[O-])cc(N)c6c5O)c(O)c4)cc3O)c(O)c12.[Cu].[Cu].[Na+].[Na+].[Na+].[Na+]" has what recorded TD50?
Result: 1080

###

tested on: rodent lifetime carcinogenesis bioassay, tumor incidence TD50; test: carcinogenic potency in animals, long-term in vivo studies, CPDB compilation (AID 1745844); conditions: rat; strain Charles River CD (Sprague-Dawley); females; in feed; site: mammary gland; lesion: adenoma; dosed 104 weeks; study length 104 weeks
The source made the active and inactive calls. No rule for the calls is given here.
Outcome Measure: TD50

Task: Item "OC(Cn1cncn1)(Cn1cncn1)c1ccc(F)cc1F" has what recorded TD50?
Result: 412 mg/kg/day (inactive)

###

test system: rodent lifetime carcinogenesis bioassay, tumor incidence TD50; assay: carcinogenic potency in animals, long-term in vivo studies, CPDB compilation (AID 1745844); details: mouse; strain CDF1; females; in feed; site: liver; lesion: several types; types named in the paper; dosed 88 weeks; study length 88 weeks
Outcome Measure: TD50

Task: Item "Cc1c(N)nc(C)c2c1[nH]c1ccccc12" has what recorded TD50?
Result: 25 mg/kg/day

###

test system: rodent lifetime carcinogenesis bioassay, tumor incidence TD50; test: carcinogenic potency in animals, long-term in vivo studies, CPDB compilation (AID 1745844); settings: rat; strain Chester Beatty albino; males; in drinking water; site: esophagus; lesion: benign tumor; dosed 73 weeks; study length 73 weeks
Outcome Measure: TD50

Task: Item "O=NN1CCCC[C@H]1c1cccnc1" has what recorded TD50?
Result: 28.1 mg/kg/day

###

tested on: rodent lifetime carcinogenesis bioassay, tumor incidence TD50; experiment: carcinogenic potency in animals, long-term in vivo studies, CPDB compilation (AID 1745844); conditions: mouse; strain B6C3F1; females; by gavage; site: all sites; lesion: malignant lymphoma, histiocytic type + malignant lymphoma, mixed type + malignant lymphoma, lymphocytic type; dosed 103 weeks; study length 106 weeks
Outcome Measure: TD50

Task: Give the reported TD50 for "C=CCOC(=O)CC(C)C" (system: rodent lifetime carcinogenesis bioassay, tumor incidence TD50).
Result: 62.8 mg/kg/day

###

test system: rodent lifetime carcinogenesis bioassay, tumor incidence TD50; experiment: carcinogenic potency in animals, long-term in vivo studies, CPDB compilation (AID 1745844); settings: mouse; strain B6C3F1; males; inhaled; site: all sites; lesion: malignant lymphoma, histiocytic type + malignant lymphoma, mixed type + malignant lymphoma, lymphocytic type + malignant lymph; dosed 82 weeks; study length 104 weeks
Outcome Measure: TD50

Task: Give the reported TD50 for "C=CC=C" (system: rodent lifetime carcinogenesis bioassay, tumor incidence TD50).
Result: 99.8 mg/kg/day

###

system: rodent lifetime carcinogenesis bioassay, tumor incidence TD50; experiment: carcinogenic potency in animals, long-term in vivo studies, CPDB compilation (AID 1745844); conditions: mouse; strain CF-1; males; in drinking water; site: lung; lesion: one or several types; types not named; dosed 125 weeks; study length 125 weeks
Outcome Measure: TD50

Task: Give the reported TD50 for "CCOC(N)=O" (system: rodent lifetime carcinogenesis bioassay, tumor incidence TD50).
Result: 13.2 mg/kg/day
